Known melting point of a selection of molecules

Recorded results for 8 molecules are shown here.
Reported melting point, molecule CC1CCN(CC(O)CN)CC1 (stereo not given) : ____ 63 to 65 °C

Then Cc1cc2ccccc2nc1Br ? 94 to 96 °C

# iterate: O=C(CCl)NC(Cc1c[nH]c2ccccc12)C(=O)O (stereo not given) 153 to 155 °C

Note, next up: O=Cc1ccc([N+](=O)[O-])c(O)c1 132 to 134 °C

Continue with COC(=O)Nc1ccc(Br)cc1 122 to 124 °C

Request: CCOC(=O)c1cnn2cccnc12 117 to 119 °C

Moving on to O=C(O)c1ccccc1Nc1ccc(OC(F)F)cc1 153 to 155 °C

Then this molecule: COC(=O)Nc1ccccc1O 120 to 122 °C

---
Recorded melting point for CC(C)C(=O)Nc1cccc(O)c1 , please? 179 to 181 °C

// next record COC(=O)NS(=O)(=O)Cl 69 to 71 °C

Query Nc1cc(Cl)ccc1-n1ccnc1 next 154 to 156 °C

Again, but for N#CCc1ccc(OCCBr)cc1 52 to 54 °C

One more molecule: Cc1noc(C)c1CC(=O)O 117 to 119 °C

Same for O=C(O)CC1CSCCS1 (stereo not given) 77 to 79 °C

Cool, now NS(=O)(=O)c1cc([N+](=O)[O-])ccc1F 139 to 141 °C

====

observation-type: melting point

Item under review: C=CCOc1ccc(C(=O)c2ccccc2)c(O)c1 . Reported melting point? 67 to 70 °C

// same read-out, input: CC(=O)NCc1ccc(S(N)(=O)=O)cc1 170 to 172 °C

Lookup Cn1cc(C(=O)O)c(-c2coc3ccccc23)n1 277 to 279 °C

Moving on to the next molecule: N#Cc1cccc(-c2ncn[nH]2)c1 144 to 146 °C

And the next one, NCc1cccc(NC(=O)N2CCCC2)c1 ? 128 to 130 °C

Others:
Which value of melting point has been reported for O=C(O)C1CCCN(S(=O)(=O)c2ccc(Br)s2)C1 (stereo unspecified) in the records? 157 to 159 °C

Now consider O=[N+]([O-])c1cnc2c(c1)CCC2 and answer again. 85 to 87 °C

What about Cc1ccc(-n2nc(C)c(CC(=O)O)c2C)cc1Cl ? 146 to 148 °C

Now consider O=C(CO)NCc1ccc(F)cc1 . 102 to 104 °C

Same for CC(C)(C)OC(=O)NCC(C)(C)C(=O)O 116 to 118 °C

Same thing, different molecule: N#CCC1=NCCN1 84 to 86 °C

Also need N#Cc1cccc(C(=O)NN)c1 , thanks. 166 to 168 °C

Next entry: COc1ccc2c(-c3ccccc3)cc(NN)nc2c1 119 to 121 °C

Ok, now CC(C)(C)c1ccc(S(N)(=O)=O)cc1 136 to 138 °C

// same read-out, input: Cc1csc(NC(C)C(=O)O)n1 (stereo unspecified) 189 to 191 °C

Okay, and O=c1[nH]c(S)nc2ccsc12 ? 364 to 366 °C

Next: CC1CCNc2ccccc2N1 (stereo unspecified) 96 to 98 °C

NC(=O)OCC(F)(F)F , same question. 42 to 44 °C

Field entry: O=S(=O)(Cl)c1cn2c(n1)CCCC2 74 to 76 °C

Next molecule: CN(C)S(=O)(=O)c1cc(C(=O)O)ccc1Br 257 to 259 °C

What do you have for O=C(O)c1cc([N+](=O)[O-])cc([N+](=O)[O-])c1F ? 204 to 206 °C

Repeat for the following molecule: O=C(O)CCN1C(=O)C(=O)c2ccc(F)cc21 179 to 181 °C

Cool, now O=C(O)c1cc(F)cc2[nH]cnc12 339 to 341 °C

And then O=C(O)C1CCN(C(=O)CSc2nnc(-c3ccccc3)o2)CC1 , what is it? 104 to 106 °C

====

observation-type: melting point

// known answers, use as guide
Reported melting point, compound O=C1NCC(Br)C(=O)N1 (stereo not drawn) : ____ 200 to 202 °C

Same read-out for NS(=O)(=O)c1ccc(Cl)nc1Cl ? 189 to 191 °C

# repeat for O=C(O)c1cc(S(=O)(=O)NCc2ccccn2)c(Cl)cc1Cl 231 to 233 °C

Another compound: ClCc1cc(Br)ccc1Cl 47 to 49 °C

Another compound to look at: NC(=O)Nc1cccc(Br)c1 163 to 167 °C

More entries:
// melting point lookup, key: N[C@H]1CC[C@@H](CO)CC1 144 to 146 °C

Param item: COc1cccc(-n2cncn2)c1 95 to 97 °C

One more compound: O=C(O)COc1cc(C(F)(F)F)cc(C(F)(F)F)c1 102 to 104 °C

Follow-up entry: O=C(O)CCc1nc(-c2cc(Br)cs2)no1 129 to 131 °C

Next compound up: O=C(O)c1ccccc1S(=O)(=O)N1CCCCC1 106 to 108 °C

Next compound up: Nc1nc(-c2ccc(S(=O)(=O)N3CCCCCC3)cc2)cs1 242 to 244 °C

Try this compound next: O=C(O)c1cccnc1Nc1cccc(F)c1 202 to 204 °C

// next record Cc1cc(C=O)c(C)n1-c1ccc(F)cc1 100 to 102 °C

====

Overview of recorded melting point for various compounds

Reported melting point for COc1ccc(C2C(C(=O)O)CCC(=O)N2c2ccc(C)cc2)cc1 (centres undefined) : what is it? 201 to 203 °C

Quick one: CNC(=O)c1ccc(CN)cc1 90 to 92 °C

Then what about the compound O=C(O)C=Cc1csc(Br)c1 ? 187 to 189 °C

Next:
# melting point lookup, item NS(=O)(=O)c1ccc(C(=O)O)cc1Br 201 to 203 °C

Please give the result for NNc1ccc(Cl)nc1 too. 131 to 133 °C

Repeat for the following compound: CCOc1ccc(C(=O)N2CCCCC2)cc1N 143 to 145 °C

Would you kindly repeat that for COc1ccc(S(N)(=O)=O)cc1C(=O)O ? 224 to 226 °C

Would you mind doing Cc1ccc(CO)cc1N as well? 108 to 110 °C

Same again, this time with CC(=O)Nc1ccc(SCC(=O)O)cc1 156 to 158 °C

====

Listed below: melting point values for each entry.

The following compounds have reported results that may help.
Fill in the blank: the reported melting point of CC(=O)NC=C(Cl)Cl is ____. 85 to 87 °C

# iterate: Sc1ncc(-c2ccccc2)n1-c1ccccc1 250 to 252 °C

And then N#Cc1ccccc1Oc1ccc(N)cc1F , what is it? 119 to 121 °C

More entries:
I have this compound here, CC(=O)Nc1ccc(S(=O)(=O)NC(C)C(=O)O)cc1 (stereo not drawn) , and I need its recorded melting point. 178 to 180 °C

Another compound to check: CC(=O)Cn1c(CCl)nc2sc3c(c2c1=O)CCCC3 132 to 134 °C

Also, CSc1[nH]c(=O)c(C(=O)O)cc1C#N please. 254 to 256 °C

// repeat for COc1cc(OC)cc(N2CCC(Br)C2=O)c1 (stereo not drawn) and report 78 to 80 °C

And then Cc1cc(Cl)c(C(=O)O)cc1C , what is it? 180 to 182 °C

====

observation-type: melting point

Answered cases to consult:
Any idea what melting point was measured for O=C(O)C(c1ccccc1)N1CCCCC1=O (configuration not stated) ? 148 to 150 °C

N#Cc1c(N)cc(N)nc1S ? 349 to 351 °C

Cool, now Nc1nnc(-c2ccc3ccccc3c2)o1 274 to 276 °C

More entries:
Item under review: O=C(O)c1occc1Br . Reported melting point? 155 to 157 °C

Input CC(Cl)C(=O)Nc1ccc([N+](=O)[O-])cc1Cl (configuration not stated) 87 to 89 °C

Then this compound: O=C(O)c1ccccc1SCC(=O)N1CCc2ccccc21 152 to 154 °C

====

We begin with a simple list: items and their reported melting point.

Name the reported melting point value associated with the molecule Cc1cc(N)n(C2CCS(=O)(=O)C2)n1 (stereo not drawn) 215 to 217 °C

Next entry: O=C(O)c1cnc2c(c1)c(C1CC1)nn2-c1ccccc1 250 to 252 °C

Also check O=C(O)c1cc(Cl)[nH]c(=O)c1 249 to 251 °C

Now try CCOc1cc(C=O)cc(Cl)c1OC . 55 to 57 °C

Proceed to O=C1CCC(c2ccccc2)CCN1 (stereo not drawn) 194 to 196 °C

Continuing:
Record request: melting point value, item CC(C)Cc1ccc(CCC(=O)O)cc1 64 to 66 °C

Please do the same for CC(C)(C)OC(=O)N1CCN(C(N)=S)CC1 as well. 168 to 170 °C

Item: CS(=O)(=O)c1ccccc1F 49 to 53 °C

Here is the next molecule: Cc1c(C(=O)O)cnc2ccccc12 254 to 256 °C

Proceed to O=C(O)c1ccc2c(=O)n(-c3cccc(Cl)c3)c(=O)[nH]c2c1 365 to 367 °C

Request: CC(C)c1ccc2c(c1)C(=O)C(=O)N2 93 to 95 °C

Also, Cc1ccn2c(=O)c(C(=O)O)cnc2c1 please. 241 to 243 °C

Also, O=C(O)c1cc(Br)c(Cl)[nH]1 please. 179 to 181 °C

Field entry: O=C(O)Cc1cc(-c2ccccc2)on1 172 to 174 °C

Same question, O=S(=O)(CCO)c1ccc(Br)cc1 this time 63 to 65 °C

Would you mind doing Cc1ccc(C(N)=O)c(O)c1 as well? 181 to 183 °C

Thanks! And Cc1noc(-c2ccc(N)c(C)c2)n1 ? 161 to 163 °C

Another molecule: CC1Cc2c(Br)cccc2C(=O)N1 (stereo not drawn) 135 to 137 °C

And the next one, Cc1cccc2c(CCN)c[nH]c12 ? 125 to 127 °C

Query COc1ccc(C2C(C(=O)O)CC(=O)N2C)cc1 (stereo not drawn) next 183 to 185 °C

Try this molecule next: O=C(CCl)Nc1ccc(S(=O)(=O)N2CCCC2)cc1 185 to 187 °C

Please give the result for COc1ccc2c(=O)c(-c3ccccc3)c(C)oc2c1 too. 136 to 138 °C

Then this molecule: CC(=O)c1nc(-c2ccccc2)cs1 77 to 79 °C
